system: OVCAR-4; assay: NCI tumour cell line growth inhibition, 48 h
Active and inactive are the calls of the source. Rule as the data show it: active = GI50 up to about 1.1 µM and inactive = higher. Peptide text beside a SMILES is read from it. * marks the point of attachment. X27 = Clc1c(Cl)c(Cl)c(O*)c(Cl)c1Cl; Boc = CC(C)(C)OC(=O)*; OBn = c1ccc(CO*)cc1; Bn = c1ccc(C*)cc1
EXPERIMENTAL_READOUT: GI50

Ask: Read the entry CC(C)(C)OC(=O)N1CC(CCl)c2ccc(O)cc21 (configuration not stated) and write its reported GI50.
Result: 0.267 µM (active)

Ask: Read the entry `NS(=O)(=O)c1cc(S(N)(=O)=O)c(NC(=O)N(c2ccccc2)c2ccccc2)c(Cl)c1Cl` and write its reported GI50.
Result: 27.4 µM (inactive)

Ask: Read the entry `Cc1nc2cccc(F)c2c(=O)n1-c1nnc(C(F)(F)F)s1` and write its reported GI50.
Result: > 10 µM (inactive)

Ask: Read the entry `CC(/C=C/C(=O)c1sc(-n2nc(-c3ccccc3)cc2-c2ccccc2)nc1C)=C\c1ccccc1` and write its reported GI50.
Result: 7.43 µM (inactive)

Ask: Read the entry `N#Cc1nc(CCN2C(=O)c3ccccc3C2=O)oc1N` and write its reported GI50.
Result: > 100 µM (inactive)

Ask: Read the entry `Cc1c2c(cc3c1C(=O)C(=O)C1=C3OC[C@@H]1C)C(C)(C)CCC2` and write its reported GI50.
Result: 17.9 µM (inactive)

Ask: Read the entry `C(=C\Nc1ccc(-c2ccccc2)cc1)/C=N/c1ccc(-c2ccccc2)cc1` and write its reported GI50.
Result: > 100 µM (inactive)

Ask: Read the entry `Cc1ccc(/N=N/C(=N/NC(=O)c2cc(Cl)ccc2C(=O)c2ccccc2)c2ccc(N(CCC#N)CCC#N)cc2C)cc1` and write its reported GI50.
Result: 10.4 µM (inactive)

Ask: Read the entry CN(C(=O)C12C3C4C1C1C2C3C41C(=O)O)C(C)(C)C (configuration not stated) and write its reported GI50.
Result: > 100 µM (inactive)

Ask: Read the entry `c1csc(-c2csc(-c3ccsc3)c2)c1` and write its reported GI50.
Result: > 100 µM (inactive)

Ask: Read the entry C/C1=C/C2=CC(C)C[C@@H]2C(=O)[C@]2(C)C(=O)CC(C)(C)[C@H]2CC1=O (some centres not stated) and write its reported GI50.
Result: > 50 µM (inactive)

Ask: Read the entry Cc1cccc(C(C)(C)C)c1NC(=O)CC1C(=O)Nc2ccccc2S1(=O)=O (configuration not stated) and write its reported GI50.
Result: 11.4 µM (inactive)

Ask: Read the entry CC(C)CC(NC(=O)C(CCC(=O)OCc1ccccc1)NC(=O)OC(C)(C)C)C(=O)NC(COCc1ccccc1)C(=O)NC(Cc1ccccc1)C(=O)Oc1c(Cl)c(Cl)c(Cl)c(Cl)c1Cl (configuration not stated) (Boc-E(OBn)LS(Bn)F-X27; configuration not given here) and write its reported GI50.
Result: 35.6 µM (inactive)

Ask: Read the entry Cc1nc(N)nc(N)c1-c1ccc(Cl)c(Cl)c1 [METOPRINE] and write its reported GI50.
Result: 37.9 µM (inactive)

Ask: Read the entry `O=C(N/N=C\c1cccs1)c1ccncc1` and write its reported GI50.
Result: > 100 µM (inactive)

Ask: Read the entry COc1ccc(NC2Oc3cc4c(cc3C(c3cc(OC)c(OC)c(OC)c3)C2C)OCO4)cc1 (configuration not stated) and write its reported GI50.
Result: 0.566 µM (active)

Ask: Read the entry `CO[C@]12C[C@H](CNC(=O)c3cc(Br)c(Br)[nH]3)O[C@H]1NC(=O)N2` and write its reported GI50.
Result: > 100 µM (inactive)

Ask: Read the entry `O=C(OC[C@H]1C[C@H]2C(=O)OCCC[C@H]2O1)c1ccccc1` and write its reported GI50.
Result: > 100 µM (inactive)

Ask: Read the entry CCCCNC1CCCCC[C@H]1O (some centres not stated) and write its reported GI50.
Result: > 100 µM (inactive)

Ask: Read the entry COC(=O)C(=O)C(/C(=N/N)C(=O)Nc1ccccc1C(N)=O)c1nc2ccc([N+](=O)[O-])cc2nc1O (configuration not stated) and write its reported GI50.
Result: > 100 µM (inactive)

Ask: Read the entry CC(=O)OCC1OC(SC2=N/C(=C\c3ccc(Br)s3)C(=O)N2CN2CCOCC2)C(OC(C)=O)C(OC(C)=O)C1OC(C)=O (configuration not stated) and write its reported GI50.
Result: 29.4 µM (inactive)

Ask: Read the entry `Cc1ccc(S(=O)(=O)NC(=O)NCC(=O)O)cc1` and write its reported GI50.
Result: > 100 µM (inactive)

Ask: Read the entry `O=c1ssc2c1Nc1c(ssc1=O)S2` and write its reported GI50.
Result: 14.4 µM (inactive)

Ask: Read the entry CC(=O)OCC1OC(n2c(N)c(C#N)c(-c3ccc(C)cc3)c(C#N)c2=S)C(OC(C)=O)C(OC(C)=O)C1OC(C)=O (configuration not stated) and write its reported GI50.
Result: 41.9 µM (inactive)

Ask: Read the entry CC(=O)NC1C(O)CC(OCCCSCCN)(C(=O)O)OC1C(O)C(O)CO (configuration not stated) and write its reported GI50.
Result: > 100 µM (inactive)

Ask: Read the entry `O=C(O)CCCNS(=O)(=O)c1ccc2ccccc2c1` and write its reported GI50.
Result: > 100 µM (inactive)

Ask: Read the entry `CC1(C)CC(=O)C(C(c2cccc(O)c2O)C2C(=O)CC(C)(C)CC2=O)C(=O)C1` and write its reported GI50.
Result: > 100 µM (inactive)

Ask: Read the entry `Cc1cc2c(cc1-c1cc3c(cc1C)C(C(C)C)=C(O)C(=O)/C3=C\Nc1ccccn1)/C(=C/Nc1ccccn1)C(=O)C(O)=C2C(C)C` and write its reported GI50.
Result: 34.9 µM (inactive)

Ask: Read the entry `Cc1ccc(S(=O)(=O)N/N=C2/CC[C@H](C(C)(C)C)C[C@@H]2C)cc1` and write its reported GI50.
Result: 0.574 µM (active)

Ask: Read the entry `CSc1c(C)[n+]([O-])c2cc(Cl)c(Cl)cc2[n+]1[O-]` and write its reported GI50.
Result: 16.4 µM (inactive)

Ask: Read the entry `CC(=O)C(=Cc1ccc(C=C(C(C)=O)C(C)=O)cc1)C(C)=O` and write its reported GI50.
Result: 1.9 µM (inactive)

Ask: Read the entry `Cc1nc(-n2nc(-c3ccccc3)cc2-c2ccccc2)sc1C(=O)CC(=O)C(=O)Nc1ccc(Cl)c(Cl)c1` and write its reported GI50.
Result: 66.4 µM (inactive)

* * *

test system: TK-10; assay: NCI tumour cell line growth inhibition, 48 h
The source made the active and inactive calls. No stated cut-off is given here; in the data, active = GI50 up to about 1.1 µM and inactive = higher.
Pick one: 1 (active), -1 (inactive)

Ask: Assay result, entry Cc1nn(C(=O)c2ccc(Cl)cc2)c2c1C(c1ccc(O)cc1)SC(=N)N2 (configuration not stated) — outcome?
Result: -1

Ask: Assay result, entry Cc1cccc(C(C)(C)C)c1NC(=O)CC1C(=O)Nc2ccccc2S1(=O)=O (configuration not stated) — outcome?
Result: -1

Ask: Assay result, entry Nc1nccc(NCC2(CO)CC(CCc3ccccc3)C2)n1 (configuration not stated) — outcome?
Result: -1

Ask: Assay result, entry COc1ccc2c(c1)CN1CCc3c(cc(OC)c(OC)c3OC)C1C2 (configuration not stated) — outcome?
Result: -1

Ask: Assay result, entry `O=C1C2CN(Cc3ccccc3)CC1CN(CC1CC1)C2` — outcome?
Result: -1

Ask: Assay result, entry CC1OC(OC2CC(O)(C(=O)CO)Cc3c(O)c4c(c(O)c32)C(=O)c2ccccc2C4=O)CC(N)C1O (configuration not stated) — outcome?
Result: 1

Ask: Assay result, entry `O=c1[nH]c2nc[nH]c2c(=O)n1C1CCCCC1` — outcome?
Result: -1

Ask: Assay result, entry `O=C(Cc1nc2ccc(C(=O)c3ccccc3)cc2nc1O)C(=O)Nc1ccccc1[N+](=O)[O-]` — outcome?
Result: -1

Ask: Assay result, entry `CC(=O)OC[C@H]1On2nnnc2[C@H](OC(C)=O)[C@@H](OC(C)=O)[C@@H]1OC(C)=O` — outcome?
Result: -1

Ask: Assay result, entry C/C(=C\C(C)COCc1ccccc1)[C@H](COCc1ccccc1)OCc1ccccc1 (some centres not stated) — outcome?
Result: -1

Ask: Assay result, entry `OCCCCCNc1cc(O)nc(O)n1` — outcome?
Result: -1

Ask: Assay result, entry `CC(=O)OCCOCNC(=S)N/N=C/c1ccc([N+](=O)[O-])o1` — outcome?
Result: -1

Ask: Assay result, entry COC1CCC(O)C(/C=C/[N+](=O)[O-])C1 (configuration not stated) — outcome?
Result: -1

Ask: Assay result, entry `Clc1ccc(CCN[C@H]2CCCC[C@H]2N2CCCC2)cc1Cl` — outcome?
Result: -1

Ask: Assay result, entry CC(=O)OCC1OC(SC2=N/C(=C\c3ccc(Br)s3)C(=O)N2CN2CCOCC2)C(OC(C)=O)C(OC(C)=O)C1OC(C)=O (configuration not stated) — outcome?
Result: -1

Ask: Assay result, entry `Nc1ccc(S(=O)(=O)Nc2nc3ccccc3nc2N2CCCCC2)cc1` — outcome?
Result: -1

Ask: Assay result, entry CCCCCCCCCCCCCCCCNc1ccn(C2CC(O)C(COC(c3ccccc3)(c3ccccc3)c3ccc(OC)cc3)O2)c(=O)n1 (configuration not stated) — outcome?
Result: -1

Ask: Assay result, entry C/C(O)=C1\CC2CN3CCc4c([nH]c5ccccc45)C3CC2CC1=O (configuration not stated) — outcome?
Result: -1

Ask: Assay result, entry CC1Cc2c(Br)nc(N)nc2NC1=O (configuration not stated) — outcome?
Result: -1

Ask: Assay result, entry `COc1ccc(/N=N/C(=N\c2ccccc2)c2ccc(N(CCC#N)CCC#N)cc2)cc1` — outcome?
Result: -1

Ask: Assay result, entry `C[C@@H]1CC[C@@H]2[C@@H](C1)O[C@@H]([C@@H](C)OCc1ccccc1)SC2(C)C` — outcome?
Result: -1

Ask: Assay result, entry `O=Cc1cccc2c1Oc1c(cccc1C(=O)O)S2` — outcome?
Result: -1

Ask: Assay result, entry `COC(=O)[C@H]1COC(=S)N1C(=O)[C@@H](C)[C@H](O)C(C)C` — outcome?
Result: -1

Ask: Assay result, entry `O=c1[nH]c(=O)n(COCc2ccccc2)c2ccsc12` — outcome?
Result: -1

Ask: Assay result, entry COc1ccc(C2S/C(=C\c3ccccc3)C(=O)N2NC(=O)Cc2ccccc2)cc1 (configuration not stated) — outcome?
Result: -1

Ask: Assay result, entry `COc1ccc(-n2c(=O)n(C)c(=O)n2-c2ccc(OC)cc2)cc1` — outcome?
Result: -1

Ask: Assay result, entry CCCC(O)c1cn(C(NC(=O)c2ccccc2)P(=O)(OCC)OCC)nn1 (configuration not stated) — outcome?
Result: -1

Ask: Assay result, entry COc1ccc(C2C3CCc4ccccc4C3=NN2S(=O)(=O)c2ccc(/C=C/C(=O)O)cc2)cc1 (configuration not stated) — outcome?
Result: -1

Ask: Assay result, entry `COc1ccc(/C=N/NS(=O)(=O)c2ccccc2)cc1` — outcome?
Result: -1

Ask: Assay result, entry CC(C)NC(=O)OCc1nnn2c1C(OC(=O)NC(C)C)CC2 (configuration not stated) — outcome?
Result: -1

Ask: Assay result, entry `O=C(CCc1nnc(S)[nH]1)Nc1cc(Cl)ccc1Cl` — outcome?
Result: -1

Ask: Assay result, entry COc1ccc([C@H](NC(=O)c2ccccc2)[C@@H](O)C(=O)O[C@H]2C[C@@]3(O)C(OC(=O)c4ccccc4)C4[C@](C)(C(=O)[C@H](OC(C)=O)C(=C2C)C3(C)C)[C@@H](O)C[C@H]2OC[C@@]42OC(C)=O)cc1 (some centres not stated) — outcome?
Result: 1
